Where these numbers come from: PubChem BioAssay (NCATS)

Biological target: Calcium and integrin-binding protein 1 (Homo sapiens) (UniProt Q99828)
Sequence (Q99828 whole entry, looked up): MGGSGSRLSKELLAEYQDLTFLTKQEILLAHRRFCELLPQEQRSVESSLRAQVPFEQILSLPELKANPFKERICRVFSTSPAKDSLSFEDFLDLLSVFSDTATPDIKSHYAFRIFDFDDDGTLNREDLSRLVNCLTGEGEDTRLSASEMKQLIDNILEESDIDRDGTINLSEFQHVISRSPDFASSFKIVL
Assay: Primary qHTS for Identification of Calcium Integrin Binding Protein 1 (CIB1) Competitor (AID 1508620);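 further: GST tagged CIB1 binding a fluorescein labelled alphaIIb integrin peptide tracer; top concentration of the series differs between compounds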
Conditions: CIB1-GST / FITC-alphaIIb peptide fluorescence polarization; series mostly up to 114 µM
Inconclusive results are not listed. Active and inactive are the calls of the source. The call rests on the fitted dose curve; in most records, active means well fitted inhibition curve with a large enough effect; inconclusive means small, poorly fitted or top-dose-only effect; inactive means flat fitted curve, though single readings scatter.
Result category, one only: Y for active, N for inactive

Query block: Answer briefly: the call reported for C[C@@H]1CN(C2CCC(C#N)(c3ccc(F)cc3)CC2)CC[C@]1(C(=O)O)c1ccccc1 (some centres undefined) in this assay.
Result block: N

Query block: Answer briefly: the call reported for CN1C2CCC(C)(C)C1CC(OC(=O)C(O)(c1cccs1)c1cccs1)C2 (centres undefined) in this assay.
Result block: N
